In this section, each of the binders is paired with its reported koff.
target: T1, Histidine-tagged ROR1 protein (extracellular region) (UniProt Q01973 30-406); test: SPR, Biacore X100; antibody captured by anti-human IgG1 on CM5 chip, His-tagged ROR1 extracellular portion injected at 1.5-100 nM
T1 construct: extracellular domain; also called extracellular portion of ROR1 bearing a Histidine tag; not shown: Histidine tag
T1 sequence (Q01973 30-406): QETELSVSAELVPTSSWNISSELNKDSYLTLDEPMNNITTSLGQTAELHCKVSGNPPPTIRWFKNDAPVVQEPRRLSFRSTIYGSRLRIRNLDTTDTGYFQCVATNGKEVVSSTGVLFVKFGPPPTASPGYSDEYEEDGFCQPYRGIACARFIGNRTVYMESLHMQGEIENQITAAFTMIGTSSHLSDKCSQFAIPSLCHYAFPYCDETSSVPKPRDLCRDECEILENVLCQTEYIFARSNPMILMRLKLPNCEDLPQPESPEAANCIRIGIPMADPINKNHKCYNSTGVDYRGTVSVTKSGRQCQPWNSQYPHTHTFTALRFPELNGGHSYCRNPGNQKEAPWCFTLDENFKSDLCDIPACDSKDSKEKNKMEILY
Reply with the number, then its unit.

Example cases with answers are listed next.
binder	koff
Clone B chimeric ROR1 antibody (antibody, V domains shown, also called B5) VH: DVQLEESGGGLVRPGRSLKLSCADSGVNFSNRGMAWVRQAPTKGLEWVATISYDGRIIYYRDSVKGRFSISRENAKSTLYLQMDSLRSEDTATYYCARHPIAADWYFDFWGPGTMVTVSS VL: DIRMTQSPASLSASLGETVTIECLTSEDIYSDLAWFQQKPGKSPQLLIYDANSLQNGVPSRFGGCGSGTQYSLQISSLQSEDVATYFCQQYKNYPPTFGGGTKLVLK	0.000698 s⁻¹
Clone F chimeric ROR1 antibody (antibody, V domains shown) VH: EVQLVESGGGLVQPGRSLKLSCAASGFIFSEHNMAWVRQAPKKGLEWVATISDDGRNTYYRDSMRGRFTISRENARSTLYLQLDSLRSEDTATYYCASHRYNLFDSWGQGVMVTVSS VL: DIQMTQSPSFLSASVGDRVTINCKASQNIDRYLNWYQQKLGEAPKRLLYNTNKLQTGIPSRFSGSGSATDFTLTISSLQPEDFATYFCLQYNSLPLTFGSGTKLEIK	0.000836 s⁻¹
Clone G5 chimeric ROR1 antibody (antibody, V domains shown) VH: EVQVVESGGGLVQPGRSLKLSCVPSGFTFNNYWMTWIRQAPGKAPEWVASISNTGGSTFYPDSVRGRFSISRDNTKGTLYLHMTSLRSEDTATYYCIRNMDAWGQGTSVTVSS VL: DIQLTQSPSTLSASLGERVTISCRASQSISNSLNWYQQKPDGTVKRLIYSTSTLESGVPSRFSGSGSGTDFSLSISSLESEDFAMYYCLQFATYPQVTFGSGTKLEIK	0.000416 s⁻¹
Clone O chimeric ROR1 antibody (antibody, V domains shown) VH: QVRLLQSGAALVKPGASVKMSCKASGYTFTDYWMSWVKQSHGKSLEWIGEIYPNSGATNFNEKFKDKATLTVDRSTSTAYMELSRLTSEDSAIYYCARGFPNNYLSWFAYWGQGTLVTVSS VL: DIVLTQSPALAVSLEQRVTIACKTSQNVDNHGISYMHWYQQKSGQEPKLLIYEGSNLAVGIPARFSGSGSGTDFTLTIDPVEADDIETYYCQQSKDDPRTFGGGTKLELK	0.000607 s⁻¹
Clone J chimeric ROR1 antibody (antibody, V domains shown, also called J6) VH: DVKLVESGGGLLKPGGSLKLSCVASGFSFSKYWMHWVRQAPGQGLEWIAEIEYDGTETNYAPSIKDRFTISRDNAKNTLYLQMSNVRFEDAATYFCTTEEMHTTDYYYGFAYWGQGTLVTVSS VL: DIVLTQSPALAVSVGQRATISCRASQSVSISRYDFMHWYQQKPGQQPKLLIYRASNLASGIPARFSGSGSGTDFTLTINPVQADDIATYYCQQNRESPRTFGGGTKLELK	0.000835 s⁻¹

Would you mind telling me what koff value was observed for Clone Pi chimeric ROR1 antibody (antibody, V domains shown) VH: EVQLVESGGGLVQPGRSLTLSCSASGFTFRDYNMAWVRQAPRKGLEWVATISFDDYNTYYRDSVKGRFTISRDDAKSTLYLQMDSLRSEDTATYYCARPGTYWGQGTLVTVSS VL: DIQLTQSPSSLSASLGDRVSLTCQSSQGIGKYLSWFQHKPGKPPKPVINYATNLADGVPSRFSGRRSGSDFSLTISSLESEDTAIYYCLQFDDFRWTVGGGTKLELK ? 0.000349 s⁻¹

Which koff value belongs to Clone I chimeric ROR1 antibody (antibody, V domains shown) VH: EVQLVESGGGSVQPGRSLKLSCAASGFTFSDYNMAWVRQAPKKGPEWVATITYDVHNAYYRDSVKGRFTISRDDAKSTLYLQMDSLRSEDTATYFCARPGAYWGQGTLVTVSS VL: DIQLTQSPSSMSASLGDRVSLTCQSSQGIGKYLSWYQHKPGKPPKAMIYYATKLADGVPSRFSGSRSGSDFSLTISSLESEDIAIYYCLQFDDYPWTFGGGTKLELK ? 0.00051 s⁻¹

Where do the numbers come from? From patent US20230220073A1.
